B1: KLHL13 (parent)
chain: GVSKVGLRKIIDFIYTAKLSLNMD

# Variants of: B1
# Protocol Description: protein stability index of a GFP-peptide fusion (GPS, HEK-293T) (PSI 1-6); higher = more stable;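 further: lentivirally expressed fusions sorted by FACS into six bins by GFP to DsRed ratio, PSI derived from sequencing read proportions per bin multiplied by bin number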
# Setup Conditions: c terminus: a fixed tail appended
Readout Kind: protein stability index

N22A ... 3.65
G1S ... 3.05
D12M ... 1.62
K18G ... 2.55
K9N ... 3.3
V5N ... 3.8
S20N ... 3.26
D12V ... 1.94
M23A ... 2.48
L7F ... 2.93
Y15Q ... 1.36
V5L ... 2.12
R8C ... 2.46
Y15L ... 2.07
G1H ... 2.49
I11H ... 4.7
V5I ... 1.5
I10G ... 2.31
Y15T ... 2.52
L19W ... 2.93
K9M ... 2.42
L7H ... 3.17
G6P ... 2.12
I14Q ... 2.24
L21C ... 2.69
D12I ... 2.57
I10P ... 1.81
K9V ... 4.21
L7S ... 2.94
D24R ... 3.43
G6Y ... 3.06
T16P ... 2.57
G1L ... 2.96
I11Q ... 1.61
S20P ... 2.25
K9E ... 1.78
Y15D ... 1.8
T16M ... 1.95
K9C ... 3.38
I10E ... 1.48
I10C ... 1.53
G6K ... 2.84
N22L ... 2.11
I10H ... 1.14
I14C ... 2.44
S20L ... 2.67
